Tested System: T1, Human EphA2 (Ecto) (Human, UniProt P29317 24-537)
T1 construct: extracellular domain
T1 sequence (P29317 24-537): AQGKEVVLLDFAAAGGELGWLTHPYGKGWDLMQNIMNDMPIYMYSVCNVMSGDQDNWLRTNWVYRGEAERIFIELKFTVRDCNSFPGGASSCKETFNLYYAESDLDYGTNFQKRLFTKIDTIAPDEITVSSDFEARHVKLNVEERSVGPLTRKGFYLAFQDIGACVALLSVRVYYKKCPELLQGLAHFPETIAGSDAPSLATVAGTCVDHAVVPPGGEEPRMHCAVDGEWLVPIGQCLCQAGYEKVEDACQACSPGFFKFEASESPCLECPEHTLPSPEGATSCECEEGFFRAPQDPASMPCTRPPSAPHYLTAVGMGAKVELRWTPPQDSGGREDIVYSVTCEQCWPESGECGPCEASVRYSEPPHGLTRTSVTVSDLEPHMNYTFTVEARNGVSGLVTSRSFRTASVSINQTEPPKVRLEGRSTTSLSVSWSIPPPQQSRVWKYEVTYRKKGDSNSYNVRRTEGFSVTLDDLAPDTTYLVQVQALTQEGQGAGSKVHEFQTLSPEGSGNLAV
Measurement Description: FP competition, tracer Compound 18
Starred links: 1 amine or outer side, 2 acyl side, 3 side chain; linkers in the order of their positions; H or OH if unused. Positions of bridges follow the written chain, without caps; N, C: chain ends. Non-standard residues stand in square brackets, D forms with d. Primed or numbered codes have the meaning given here. No end group written: not given here. TBMB′ = 1,3,5-tris(bromomethyl)benzene, 1,3,5-tris(methylene)benzene core, three thioethers to Cys; TBMB = c1c(C[*:1])cc(C[*:3])cc1C[*:2]; Sar = CNCC(=O)O
I'd be grateful if you could share measured pKi for these entries.
Units for pKi: none; it is -log10 of a concentration expressed in mol/L.

Form: binder = Ac-[Sar][Sar]A[dD]VTCPWGPAWCPVNRPGC (linker 7-14-21 via TBMB′) [Bicycle Compound 173] ; pKi = 8.17

Form: binder = [Sar][Sar]ACPWGPFWCPVNR[dA]GC (linker 4-11-18 via TBMB) [Bicycle Compound 105] ; pKi = 6.17

Form: binder = [Sar][Sar]ACPWGPFWCPVNRAGC (linker 4-11-18 via TBMB) [Bicycle Compound 104] ; pKi = 6.91

Form: binder = ADVHCPWGPFWCPV[dA]RPGCA (linker 5-12-19 via TBMB) [Bicycle Compound 155] ; pKi = 8.70

Form: binder = [Sar][Sar]ACPWGPFWCPV[dA]RPGC (linker 4-11-18 via TBMB) [Bicycle Compound 102] ; pKi = 6.50
